Form field: Activity (one value per entry).
Test system: Rattus norvegicus
Test: Antagonist activity at ER receptor assessed as inhibition of 17-alpha-ethynylestradiol-induced increase in uterine weight of Sprague-Dawley rat at 10 mg/kg/day, po
Format: functional
Measure Name: Activity (mg)

1. COc1ccc(/C=C2\CC(c3ccc(OCCN(C)C)cc3)Oc3cc(OC)ccc32)cc1 (configuration not stated): 85.4
2. COc1ccc2c(c1)OC(c1ccc(O)cc1)C/C2=C\c1ccc(OCc2ccccc2)cc1 (configuration not stated): 46.33
3. COc1ccc(C(=C2CC(c3ccc(OCCN4CCCCC4)cc3)Oc3cc(OC)ccc32)c2ccc(OC)cc2)cc1 (configuration not stated): 81.7
4. COc1ccc(C(=C2CC(c3ccc(O)cc3)Oc3cc(OC)ccc32)c2ccc(OC)cc2)cc1 (configuration not stated): 70.33
5. COc1ccc(/C=C2\CC(c3ccc(OCCN4CCCC4)cc3)Oc3cc(OC)ccc32)cc1 (configuration not stated): 92.3
6. COc1ccc(/C=C2\CC(c3ccc(O)cc3)Oc3cc(OC)ccc32)cc1 (configuration not stated): 88.33
7. COc1ccc(/C=C2\CC(c3ccc(OCCN4CCCCC4)cc3)Oc3cc(OC)ccc32)cc1 (configuration not stated): 104.4

* * *

Form field: inhibition in vivo at 10 mg/kg/day (one value per entry).
Tested on: Rattus norvegicus
Assay: Antagonist activity at ER receptor assessed as inhibition of 17-alpha-ethynylestradiol-induced increase in uterine weight of Sprague-Dawley rat at 10 mg/kg/day, po
Format: functional
Conditions: Rattus norvegicus, Sprague-Dawley
Measure Name: inhibition in vivo at 10 mg/kg/day (%)

1. COc1ccc(/C=C2\CC(c3ccc(OCCN(C)C)cc3)Oc3cc(OC)ccc32)cc1 (stereo unspecified): 21
2. COc1ccc2c(c1)OC(c1ccc(O)cc1)C/C2=C\c1ccc(OCc2ccccc2)cc1 (stereo unspecified): 29
3. COc1ccc(C(=C2CC(c3ccc(OCCN4CCCCC4)cc3)Oc3cc(OC)ccc32)c2ccc(OC)cc2)cc1 (stereo unspecified): 26
4. COc1ccc(C(=C2CC(c3ccc(O)cc3)Oc3cc(OC)ccc32)c2ccc(OC)cc2)cc1 (stereo unspecified): 17
5. COc1ccc(/C=C2\CC(c3ccc(OCCN4CCCC4)cc3)Oc3cc(OC)ccc32)cc1 (stereo unspecified): 15
6. COc1ccc(/C=C2\CC(c3ccc(OCCN4CCCCC4)cc3)Oc3cc(OC)ccc32)cc1 (stereo unspecified): 4

* * *

Target: Estrogen receptor (Rattus norvegicus) (UniProt P06211)
Sequence (P06211 whole entry): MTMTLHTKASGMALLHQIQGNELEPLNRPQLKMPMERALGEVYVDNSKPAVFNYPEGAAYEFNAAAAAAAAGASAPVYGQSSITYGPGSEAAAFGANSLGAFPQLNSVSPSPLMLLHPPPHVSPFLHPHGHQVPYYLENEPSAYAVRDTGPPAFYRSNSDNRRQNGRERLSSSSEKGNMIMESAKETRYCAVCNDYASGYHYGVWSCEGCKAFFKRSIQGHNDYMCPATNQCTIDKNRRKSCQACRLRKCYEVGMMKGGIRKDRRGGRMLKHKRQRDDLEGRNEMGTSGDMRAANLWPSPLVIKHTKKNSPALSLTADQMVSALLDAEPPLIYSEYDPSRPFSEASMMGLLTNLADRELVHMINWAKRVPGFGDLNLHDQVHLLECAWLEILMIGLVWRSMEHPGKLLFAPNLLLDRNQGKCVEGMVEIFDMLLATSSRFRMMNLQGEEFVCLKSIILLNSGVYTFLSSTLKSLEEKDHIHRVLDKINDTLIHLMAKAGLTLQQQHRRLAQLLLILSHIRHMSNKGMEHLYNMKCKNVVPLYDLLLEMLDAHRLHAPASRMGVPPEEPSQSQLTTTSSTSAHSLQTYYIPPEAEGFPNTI
Experiment: Displacement of [3H]estradiol from ER in rat uterus […] relative to estradiol
Measure Name: RBA (%)

1) COc1ccc(/C=C2\CC(c3ccc(OCCN4CCCC4)cc3)Oc3cc(OC)ccc32)cc1 (stereo not given): 0.095
2) COc1ccc(C(=C2CC(c3ccc(O)cc3)Oc3cc(OC)ccc32)c2ccc(OC)cc2)cc1 (stereo not given): 0.097
3) COc1ccc(/C=C2\CC(c3ccc(OCCN(C)C)cc3)Oc3cc(OC)ccc32)cc1 (stereo not given): 0.006
4) COc1ccc2c(c1)OC(c1ccc(O)cc1)C/C2=C\c1ccc(OCc2ccccc2)cc1 (stereo not given): 0.02

* * *

Target: Estrogen receptor (Rattus norvegicus)
Assay: Displacement of [3H]estradiol from ER in rat uterus […] relative to estradiol
Form field: RBA (one value per entry).
Measure Name: RBA (%)

1) COc1ccc(/C=C2\CC(c3ccc(O)cc3)Oc3cc(OC)ccc32)cc1 (stereo not drawn): 0.013
2) COc1ccc(/C=C2\CC(c3ccc(OCCN4CCCCC4)cc3)Oc3cc(OC)ccc32)cc1 (stereo not drawn): 0.095
